Reference source for all entries: paper PMC10610545

Target: imidazoline I2 receptors (I2-IR)
Test: Competition binding against [3H]2-BFI, membranes from post-mortem human frontal cortex
Conditions: two-site model, low-affinity site
If the reported [3H]-2-BFI I2 pKi (Two Sites), low affinity (pKiL) equals or exceeds 6, assign true. If not, assign false.

> print(dat)
                        compound                     tested.system  class.label
1  Cl.c1ccc2sc(-c3ncc[nH]3)cc2c1  imidazoline I2 receptors (I2-IR)        false

Incoming: Can c1ccc2c(c1)OCC(C1=NCCN1)O2 (centres unmarked) be said to have [3H]-2-BFI I2 pKi (Two Sites), low affinity (pKiL) at or above 6?
Outgoing: false

Incoming: Can Cl.c1ccc2[nH]c(-n3ccnc3)cc2c1 [LSL29, 2-Imidazol-1-yl-1H-indole hydrochloride] be said to have [3H]-2-BFI I2 pKi (Two Sites), low affinity (pKiL) at or above 6?
Outgoing: false

Incoming: Can c1ccc2oc(C3=NCCN3)cc2c1 be said to have [3H]-2-BFI I2 pKi (Two Sites), low affinity (pKiL) at or above 6?
Outgoing: true

###

Here, each record is paired with measured [3H]-2-BFI I2 pKi (One Site) data.
Target: imidazoline I2 receptors (I2-IR)
Assay: Competition binding against [3H]2-BFI, membranes from post-mortem human frontal cortex
Settings: monophasic fit
Response field accepts a number only; no unit should be typed.

> print(dat)
                                   molecule  assay.result
1  c1ccc2oc(-c3ncc[nH]3)cc2c1 [LSL60101, reference compound]          6.67
2     Cl.c1ccc2sc(-c3ncc[nH]3)cc2c1 [LSL33]          5.95

Incoming: Could you please provide reported [3H]-2-BFI I2 pKi (One Site) for c1ccc(-c2ncc3cc(-n4ccnc4)ccc3n2)cc1 [CR4056] ? Thanks!
Outgoing: 5.95

Incoming: Could you please provide reported [3H]-2-BFI I2 pKi (One Site) for Cl.c1ccc2nc(-n3ccnc3)ccc2c1 [LSL35] ? Thanks!
Outgoing: 5.49

Incoming: Could you please provide reported [3H]-2-BFI I2 pKi (One Site) for Cl.c1ccc2oc(-n3ccnc3)cc2c1 [LSL34] ? Thanks!
Outgoing: 5.58

Incoming: Could you please provide reported [3H]-2-BFI I2 pKi (One Site) for c1ccc2c(c1)OCC(c1ncc[nH]1)O2 (stereo not drawn) [LSL39] ? Thanks!
Outgoing: 6.10

###

Biological target: imidazoline I2 receptors (I2-IR)
Assay: Competition binding against [3H]2-BFI, membranes from post-mortem human frontal cortex
Settings: monophasic fit
Procedure: The inhibition constant (Ki) for each compound was obtained and is expressed as the corresponding pKi. The selectivity for these two receptors was expressed by the I2/α2 index, calculated as the antilogarithm of the […] between pKi values for I2-IR and pKi values for α2-AR. […] The crude homogenate was centrifuged for 5 min at 1000 g (4 °C) and the supernatant was centrifuged again for 10 min at 40,000 g (4 °C). […] Protein content was measured according to the method of Bradford using BSA as standard. […]
quantity name: [3H]-2-BFI I2 pKi (One Site)
Response field accepts a number only; no unit should be typed.

Reference set, count: 3
> print(dat)
                                   compound                     tested.system  assay.result
1            Cl.c1ccc2nc(-c3ncc[nH]3)ccc2c1  imidazoline I2 receptors (I2-IR)          5.24
2  c1ccc2c(c1)OCC(C1=NCCN1)O2 (stereo not shown)  imidazoline I2 receptors (I2-IR)          7.41
3  Cl.c1ccc2[nH]c(-n3ccnc3)cc2c1 [LSL29, 2-Imidazol-1-yl-1H-indole hydrochloride]  imidazoline I2 receptors (I2-IR)          4.57

Incoming: Could you please provide reported [3H]-2-BFI I2 pKi (One Site) for c1ccc2oc(C3=NCCN3)cc2c1 ? Thanks!
Outgoing: 8.31

###

Here, each record is paired with measured Papp data.
Experiment: PAMPA-BBB permeation assay
Assay type: in vitro ADME, porcine
Conditions: pig, PBS/EtOH (70:30), mean ± SD, read-out: Permeability Pe
Response body: numeric value in ×10⁻⁶ cm/s, unit text excluded.

> print(dat)
                                   molecule  quantity.name   unit.info  assay.result
1        Cl.c1ccc2oc(-n3ccnc3)cc2c1 [LSL34]           Papp  ×10⁻⁶ cm/s          14.1
2  c1ccc2oc(-c3ncc[nH]3)cc2c1 [LSL60101, reference compound]           Papp  ×10⁻⁶ cm/s          13.6
3       Cl.c1ccc2nc(-n3ccnc3)ccc2c1 [LSL35]           Papp  ×10⁻⁶ cm/s          16.2
4     Cl.c1ccc2sc(-c3ncc[nH]3)cc2c1 [LSL33]           Papp  ×10⁻⁶ cm/s           8.1
5    Cl.c1ccc2nc(-c3ncc[nH]3)ccc2c1 [LSL42]           Papp  ×10⁻⁶ cm/s           5.8

Incoming: Could you please provide reported Papp for Cl.c1ccc2[nH]c(-n3ccnc3)cc2c1 [LSL29, 2-Imidazol-1-yl-1H-indole hydrochloride] ? Thanks!
Outgoing: 10.8

###

Experiment: Pharmacokinetics of LSL33 in CD1 mice (plasma and brain)
Conditions: male, CD1, mouse, plasma, oral, 2 mg/kg
quantity name: Tmax (min)
Response body: numeric value in min, unit text excluded.

Incoming: Could you please provide reported Tmax for Cl.c1ccc2sc(-c3ncc[nH]3)cc2c1 ? Thanks!
Outgoing: 15
